Measured screen value of individual entries
B1: S. cerevisiae Abp1 (full length; SH3 domain 535-592 mutated) / Hua2 (parent)
chain 1: MALEPIDYTTHSREIDAEYLKIVRGSDPDTTWLIISPNAKKEYEPESTGSSFHDFLQLFDETKVQYGLARVSPPGSDVEKIIIIGWCPDSAPLKTRASFAANFAAVANNLFKGYHVQVTARDEDDLDENELLMKISNAAGARYSIQTSSKQQGKASTPPVKKSFTPSKSPAPVSKKEPVKTPSPAPAAKISSRVNDNNDDDDWNEPELKERDFDQAPLKPNQSSYKPIGKIDLQKVIAEEKAKEDPRLVQKPTAAGSKIDPSSDIANLKNESKLKRDSEFNSFLGTTKPPSMTESSLKNDDDKVIKGFRNEKSPAQLWAERKAKQNSGNAETKAEAPKPEVPEDEPEGEPDVKDLKSKFEGLAASEKEEEEMENKFAPPPKKSEPTIISPKPFSKPQEPVKAEEAEQPKTDYKKIGNPLPGMHIEADNEEEPEENDDDWDDDEDEAAQPPLPSRNVASGAPVQKEEPEQEEIAPSLPSRNSIPAPKQEEAPEQAPEEEIEEEAEEAAPQLPSRSSAAPPPPPRRATPEKKPKENPWATAEYDYDAAEDNELTFVENDKIINIEFVDDDWWLGELEKDGSKGLFPSNYVSLGN
chain 2: MQQTKFGKMYLDHDSVVEYSEDEIVEADRITLGYKKRLSMIENQMRHLLEDFSLDVQQIEPILADLQKYYDAFLQLLQKRNKSLQCKRSTHQPVPSPMNSQTSTNAKVNLSGKLMKFQLNSVQKFDEENILRILQNKIEFEHYFQIDKGKKQKVLLLAVYQCLNGPTRLHKVLNIEGIIHNNSIRTILGKQVSSSKWTVFLYDVKLVLLAHRQDVPNLETSKMIVRYGDLFPCALYFKDHTAY

# Variants of: B1
# PROTOCOL_DETAILS: DHFR protein-fragment complementation in yeast (Abp1-DHFR F[1,2] x partner-DHFR F[3]), deep mutational scanning, second methotrexate selection vs reference
# CONDITION_SET: with Hua2; S. cerevisiae, DHFR-PCA selection in liquid with methotrexate at 30 C, two 72 h selections (the score uses the second); reference = the pre-selection culture; not an affinity; scale: DMS score: mean over two replicates of log2(f_test/f_ref + 0.5)/ln 2, minus the synonymous-codon median
Answer as a number with no unit attached.

ALTERATION	RESULT_VALUE
chain 1 F553C	-2.38
chain 1 D577M	-2.7
chain 1 W570F	-2.79
chain 1 D557M	-2.77
chain 1 N561T	-1.97
chain 1 Y541I	-2.42

[in] Tell me the measured screen value of chain 1 A539E , please.
[out] -2.3

[in] Now give it for chain 1 L574P too.
[out] -2.01

[in] Now give it for chain 1 F583S too.
[out] -2.62

[in] Now give it for chain 1 I559M too.
[out] -1.42

[in] Now give it for chain 1 I562C too.
[out] -2.84

[in] Now give it for chain 1 G581C too.
[out] -2.66
